target: MNK2a (Homo sapiens); assay: MNK2a in vitro kinase assay (assay 1), ADP-Glo; conditions: preactivated GST-MNK2a, 20 μM ATP, read-out: MNK2 IC50
Sequence (Q9HBH9 whole entry): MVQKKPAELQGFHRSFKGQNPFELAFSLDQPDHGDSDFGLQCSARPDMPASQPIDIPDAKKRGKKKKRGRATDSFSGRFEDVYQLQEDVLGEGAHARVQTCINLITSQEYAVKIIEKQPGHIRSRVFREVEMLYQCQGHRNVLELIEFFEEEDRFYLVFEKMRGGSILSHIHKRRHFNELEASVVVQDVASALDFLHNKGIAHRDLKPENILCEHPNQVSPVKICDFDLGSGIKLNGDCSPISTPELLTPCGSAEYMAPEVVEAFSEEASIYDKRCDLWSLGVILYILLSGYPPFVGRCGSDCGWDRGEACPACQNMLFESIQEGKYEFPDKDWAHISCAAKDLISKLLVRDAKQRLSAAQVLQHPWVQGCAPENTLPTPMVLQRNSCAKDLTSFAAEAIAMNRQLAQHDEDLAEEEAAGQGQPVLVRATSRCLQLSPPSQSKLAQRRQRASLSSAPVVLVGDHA
The following molecules are shown together with reported IC50 values.
assay_metric: IC50 (µM)

given_smiles	measured_target	assay_metric	assay_value
Cc1cc(N=S2(=O)CCCC2)cc2ncnc(Nc3ccc(F)cc3O[C@@H]3CCCNC3)c12	MNK2a (Homo sapiens)	IC50	0.003
Cc1cc(N=S(C)(C)=O)cc2ncnc(Nc3ccc(F)cc3O[C@H]3CO[C@H]4[C@@H]3OC[C@@H]4O)c12	MNK2a (Homo sapiens)	IC50	0.019
CC(C)(C)OC(=O)N1CCC[C@@H](Oc2cc(F)ccc2Nc2ncnc3cc(N=S(C)(C)=O)cc(F)c23)C1	MNK2a (Homo sapiens)	IC50	0.039
CS(C)(=O)=Nc1cc(F)c2c(Nc3cccnc3O[C@@H]3CCCNC3)ncnc2c1	MNK2a (Homo sapiens)	IC50	0.111
